Task for the reader: assign each of the following compounds its reported Intensity Outside (Dye-No Dye).
# assayed-system: FUS-SNAP condensates (Homo sapiens)
# Sequence (P35637 whole entry): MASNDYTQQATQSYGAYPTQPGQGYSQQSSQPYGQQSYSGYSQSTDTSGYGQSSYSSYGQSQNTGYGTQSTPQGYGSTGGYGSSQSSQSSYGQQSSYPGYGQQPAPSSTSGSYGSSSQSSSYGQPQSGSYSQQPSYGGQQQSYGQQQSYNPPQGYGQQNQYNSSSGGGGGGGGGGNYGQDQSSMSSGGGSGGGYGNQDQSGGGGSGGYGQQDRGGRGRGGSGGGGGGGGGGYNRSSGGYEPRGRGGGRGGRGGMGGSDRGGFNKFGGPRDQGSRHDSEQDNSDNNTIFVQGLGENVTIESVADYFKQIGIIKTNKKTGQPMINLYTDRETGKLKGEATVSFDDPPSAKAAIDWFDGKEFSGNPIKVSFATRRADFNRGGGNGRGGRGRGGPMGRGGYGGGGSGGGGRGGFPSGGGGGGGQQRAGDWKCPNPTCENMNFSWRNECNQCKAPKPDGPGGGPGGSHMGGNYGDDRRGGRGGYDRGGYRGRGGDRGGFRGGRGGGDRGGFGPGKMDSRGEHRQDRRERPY
# experiment: Fluorescence imaging of dye partitioning in FUS-SNAP condensates (I-in, I-out)
# Type: physicochemical
# particulars: outside FUS-SNAP condensate; background corrected; one day of experiments
// return a plain number; no unit text

Challenge: Report value only: Intensity Outside (Dye-No Dye), FUS-SNAP condensates (Homo sapiens), "COC(=O)c1ccccc1-c1c2ccc(=N)cc-2oc2cc(N)ccc12.Cl"
Response given: 2173.5

Challenge: Report value only: Intensity Outside (Dye-No Dye), FUS-SNAP condensates (Homo sapiens), "CCN(CC)c1ccc2c(-c3ccccc3C(=O)O)c3ccc(=[N+](CC)CC)cc-3oc2c1"
Response given: 440.3

Challenge: Report value only: Intensity Outside (Dye-No Dye), FUS-SNAP condensates (Homo sapiens), O=c1cc(C(F)(F)F)c2ccc(O)cc2o1 [Dye 2, 7-Hydroxy-4-(trifluoromethyl)-coumarin]
Response given: 112.0

Challenge: Report value only: Intensity Outside (Dye-No Dye), FUS-SNAP condensates (Homo sapiens), "N#CC1=c2cc3c4c(c2Oc2c1cc1c5c2CCCN5CCC1)CCC[N+]=4CCC3"
Response given: 1959.9
